# Test system: CP194
# Method: qHTS profiling for inhibitors of Plasmodium falciparum proliferation (AID 504749); also: nearly all actives have a fitted effect of over 60% in size
# Experimental Setup: P. falciparum in erythrocytes, SYBR Green DNA, 72 h; series mostly up to 28.7 µM
Records with an inconclusive call do not appear. Activity calls are given as the source filed them. Calls follow the shape of the dose curve; as a rule, active = well fitted inhibition curve with a large enough effect; inconclusive = small, poorly fitted or top-dose-only effect; inactive = flat fitted curve, though single readings scatter.
Outcomes: true (1) (active), false (0) (inactive)

# Chemical Structure, Class Label
data = [
    ("CCCN[C@H]1CCc2nc(N)sc2C1", "false (0)"),
    ("CN(C)c1ccc(C(=C2C=CC(=[N+](C)C)C=C2)c2ccc(N(C)C)cc2)cc1", "true (1)"),
    ("S=P(N1CC1)(N1CC1)N1CC1", "false (0)"),
    ("CN1CCN(c2c(F)cc3c(=O)c(C(=O)O)cn(CCF)c3c2F)CC1", "false (0)"),
    ("COc1cc(NCc2ccc3nc(N)nc(N)c3c2C)cc(OC)c1OC", "true (1)"),
    ("NC(N)=NC(N)=NCCc1ccccc1", "false (0)"),
    ("C[C@@H](NCCCc1cccc(C(F)(F)F)c1)c1cccc2ccccc12", "true (1)"),
    ("NC(=O)N1c2ccccc2CC(=O)c2ccccc21", "false (0)"),
    ("COc1nc(N)nc2c1ncn2[C@@H]1O[C@H](CO)[C@@H](O)[C@@H]1O", "false (0)"),
    ("Cc1cccc(N(C)C(=S)Oc2ccc3ccccc3c2)c1", "false (0)"),
    ("O=C(O)c1cc(=O)[nH]c(=O)[nH]1", "false (0)"),
    ("CN(Cc1cc(Br)cc(Br)c1N)C1CCCCC1", "false (0)"),
]

----------
# Method: Quantitative High-Throughput drug screen in 47 multiple myeloma cell lines against the NCATS MIPE library collection: XG1_PLB cell viability assay (AID 1919866); also: nearly all actives have a fitted effect of over 35% in size
# Experimental Setup: CellTiter-Glo ATP, 48 h; series mostly up to 45.8 µM
Inconclusive results are not listed. Calls of active or inactive are those of the source. Calls follow the shape of the dose curve; as a rule, active = well fitted cell-killing curve with a large enough effect; inconclusive = small, poorly fitted or top-dose-only effect, or effect the other way; inactive = no such curve, though single readings can be large or run the other way.
Outcomes: true (1) for active, false (0) for inactive

# Chemical Structure, Class Label
rows = [
    ("CCCN[C@H]1CCc2nc(N)sc2C1", "false (0)"),
    ("CCC(=O)O[C@]1(C(=O)CCl)[C@@H](C)C[C@H]2[C@@H]3CCC4=CC(=O)C=C[C@]4(C)[C@@]3(F)[C@@H](O)C[C@@]21C", "false (0)"),
    ("CN(C)CCc1c[nH]c2ccc(CS(=O)(=O)N3CCCC3)cc12", "true (1)"),
    ("C[C@@H](CN1CC(=O)NC(=O)C1)N1CC(=O)NC(=O)C1", "true (1)"),
]

----------
# Method: Quantitative High-Throughput drug screen in 47 multiple myeloma cell lines against the NCATS MIPE library collection: NCIH929_DSMZ cell viability assay (AID 1918978); also: nearly all actives have a fitted effect of over 35% in size
# Experimental Setup: NCI-H929 myeloma viability, CellTiter-Glo ATP, 48 h; series mostly up to 45.8 µM
Results filed as inconclusive are left out. Calls of active or inactive are those of the source. Calls come from the whole dose curve; as a rule, active = well fitted cell-killing curve with a large enough effect; inconclusive = small, poorly fitted or top-dose-only effect; inactive = no such curve, though single readings can be large or run the other way.
Classes used: TRUE for active, FALSE for inactive

# Compound, Class Label
data = [
    ("CC(=O)[C@H]1CC[C@H]2[C@@H]3CC=C4C[C@@H](O)CC[C@]4(C)[C@H]3CC[C@]12C", "FALSE"),
    ("COC(c1ccccc1)(c1ccccc1)[C@H](Oc1nc(C)cc(C)n1)C(=O)O", "FALSE"),
    ("CNNCc1ccc(C(=O)NC(C)C)cc1", "FALSE"),
    ("O=c1oc2c(O)c(O)cc3c(=O)oc4c(O)c(O)cc1c4c23", "FALSE"),
    ("COc1cc(NCc2ccc3nc(N)nc(N)c3c2C)cc(OC)c1OC", "TRUE"),
    ("CC(=O)[C@H]1CC[C@H]2[C@@H]3CCC4=CC(=O)CC[C@]4(C)[C@H]3CC[C@]12C", "FALSE"),
    ("C#CCN[C@@H]1CCc2ccccc21", "FALSE"),
    ("O=C(N[C@H](CO)[C@H](O)c1ccc([N+](=O)[O-])cc1)C(Cl)Cl", "FALSE"),
    ("Cc1nnc(C(=O)NC(C)(C)c2nc(C(=O)NCc3ccc(F)cc3)c(O)c(=O)n2C)o1", "FALSE"),
    ("COC(=O)Nc1nc2ccc(C(=O)c3ccccc3)cc2[nH]1", "TRUE"),
    ("CC(C)(C)NC(=O)[C@H]1CC[C@H]2[C@@H]3CC[C@H]4NC(=O)C=C[C@]4(C)[C@H]3CC[C@]12C", "TRUE"),
    ("OC(Cn1cncn1)(Cn1cncn1)c1ccc(F)cc1F", "FALSE"),
    ("CCCCS(=N)(=O)CCC(N)C(=O)O (configuration not stated)", "FALSE"),
    ("NC(=O)N1c2ccccc2CC(=O)c2ccccc21", "FALSE"),
    ("O=C(O)CSCC(=O)NC1CCSC1=O (configuration not stated)", "FALSE"),
    ("N[C@@H](C(=O)N[C@@H]1C(=O)N2C(C(=O)O)=C(Cl)CS[C@H]12)c1ccccc1", "FALSE"),
    ("CCN1CCCC1CNC(=O)c1cc(S(N)(=O)=O)ccc1OC (configuration not stated)", "FALSE"),
    ("CN(C)CCc1c[nH]c2ccc(CS(=O)(=O)N3CCCC3)cc12", "FALSE"),
    ("C[C@@H]1CN(c2c(F)c(N)c3c(=O)c(C(=O)O)cn(C4CC4)c3c2F)C[C@H](C)N1", "FALSE"),
    ("O=c1cc(O)c(Cl)c[nH]1", "FALSE"),
    ("Cc1cccc(Nc2ccncc2S(=O)(=O)NC(=O)NC(C)C)c1", "FALSE"),
    ("CCOC(=O)c1ccc(OC(=O)CCCCCN=C(N)N)cc1", "FALSE"),
]
